B1: IKZF1 (parent)
chain: YHSQDRYEFSSHITRGEHRFHMS

variants of: B1; test: protein stability index of a GFP-peptide fusion (GPS, HEK-293T) (PSI 1-6); higher = more stable; details: c terminus: native;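 also: lentivirally expressed fusions sorted by FACS into six bins by GFP to DsRed ratio, PSI derived from sequencing read proportions per bin multiplied by bin number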
// protein stability index lookup, one value per entry
Please give only the number in your answer, with no unit.

- sequence variant: "D5K"
  protein stability index: 3.72

Read the next record carefully.
Look up and report measured protein stability index for this entry: S23W
2.5
